Tested on: Lacticaseibacillus casei
Test: Antibacterial activity against Lactobacillus casei ATCC 4646 after 16 to 20 hrs
Assay type: functional
Recorded endpoint: MIC (mg/L)
Respond with the bare value in mg/L.

Answered examples (3):
H-IKQLLHFFQRF-NH2; 32
H-RWRRLLKKLHHLLH-NH2; 16
H-FKKFWKWFRRF-NH2; 32

Then there is this substance:
Input line: Query MIC on Lacticaseibacillus casei for "H-RRRWWWF-NH2"
Output line: 16
